target: SHP1 (Homo sapiens); assay: PTP inhibition assay (DiFMUP substrate), SHP1; assay type: biochemical; conditions: purified SHP1; read-out: cell free, in vitro IC50 using purified SHP1
Sequence (P29350 whole entry): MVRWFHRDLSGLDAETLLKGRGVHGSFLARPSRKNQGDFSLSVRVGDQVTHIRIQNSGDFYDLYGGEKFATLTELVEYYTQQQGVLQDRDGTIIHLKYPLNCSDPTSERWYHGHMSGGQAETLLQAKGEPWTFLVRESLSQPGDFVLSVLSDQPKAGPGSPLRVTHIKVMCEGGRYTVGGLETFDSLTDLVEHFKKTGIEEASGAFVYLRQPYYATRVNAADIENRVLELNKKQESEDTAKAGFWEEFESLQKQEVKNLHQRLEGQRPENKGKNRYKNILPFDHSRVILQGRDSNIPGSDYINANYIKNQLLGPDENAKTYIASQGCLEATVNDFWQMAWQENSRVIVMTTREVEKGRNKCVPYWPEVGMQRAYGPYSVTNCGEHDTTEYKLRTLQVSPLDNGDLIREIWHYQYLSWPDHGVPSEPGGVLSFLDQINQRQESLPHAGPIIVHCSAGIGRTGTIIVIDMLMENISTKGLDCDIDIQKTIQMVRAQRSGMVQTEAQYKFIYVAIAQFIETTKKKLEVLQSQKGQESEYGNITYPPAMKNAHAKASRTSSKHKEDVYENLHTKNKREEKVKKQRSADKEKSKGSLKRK
recordedEndpoint: pIC50
Note on units: pIC50 is unitless, being -log10 of a concentration expressed in mol/L.

Form: compound = O=C(O)C1CCCCC1c1c2ccc(=O)c(O)c-2oc2c(O)c(O)ccc12 (stereo not shown) ; pIC50 = 5.57
